# subject.of.test: Receptor-type tyrosine-protein kinase FLT3 (Homo sapiens, UniProt P36888, ITD)
# Sequence (P36888 whole entry, looked up, change not shown): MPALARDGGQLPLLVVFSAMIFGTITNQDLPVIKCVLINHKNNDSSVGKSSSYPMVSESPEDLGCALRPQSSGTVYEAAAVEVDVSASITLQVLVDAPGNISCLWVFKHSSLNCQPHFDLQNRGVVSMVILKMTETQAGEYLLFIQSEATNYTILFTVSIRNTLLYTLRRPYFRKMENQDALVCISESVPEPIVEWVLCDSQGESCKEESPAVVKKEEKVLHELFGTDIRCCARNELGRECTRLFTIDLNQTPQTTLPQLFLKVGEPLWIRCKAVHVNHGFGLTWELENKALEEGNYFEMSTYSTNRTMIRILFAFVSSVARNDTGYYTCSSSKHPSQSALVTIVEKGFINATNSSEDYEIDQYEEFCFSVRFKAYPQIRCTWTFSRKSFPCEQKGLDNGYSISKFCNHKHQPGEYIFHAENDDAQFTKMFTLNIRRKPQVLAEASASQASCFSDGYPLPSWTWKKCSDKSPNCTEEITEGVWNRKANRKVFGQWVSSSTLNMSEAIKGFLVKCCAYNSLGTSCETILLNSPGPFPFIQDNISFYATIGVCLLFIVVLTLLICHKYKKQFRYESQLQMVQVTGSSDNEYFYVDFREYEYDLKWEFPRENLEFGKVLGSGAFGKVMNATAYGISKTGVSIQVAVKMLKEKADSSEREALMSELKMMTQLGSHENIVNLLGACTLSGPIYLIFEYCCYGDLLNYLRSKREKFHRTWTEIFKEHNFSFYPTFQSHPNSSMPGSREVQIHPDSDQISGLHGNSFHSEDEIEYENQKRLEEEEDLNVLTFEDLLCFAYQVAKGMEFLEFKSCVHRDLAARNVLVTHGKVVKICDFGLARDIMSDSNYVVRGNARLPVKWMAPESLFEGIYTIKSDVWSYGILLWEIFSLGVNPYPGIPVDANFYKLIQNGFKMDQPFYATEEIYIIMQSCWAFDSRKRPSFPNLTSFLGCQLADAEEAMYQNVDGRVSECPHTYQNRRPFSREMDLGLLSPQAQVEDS
# method.description: biochemical
pIC50 values by entry
In textbook form, pIC50 equals minus log to base ten of the concentration in mol/L.

                            molecule_smiles  parameter_measured  reading
0  Cc1ccc(NC(=O)Nc2nnc(Sc3ncnc4oc(-c5ccccc5)c(-c5ccccc5)c34)s2)cc1               pIC50     8.30
1  Cc1ccc(NC(=O)Nc2nnc(Sc3ncnc4oc(-c5ccccc5)cc34)s2)cc1Cl               pIC50     8.52

Prompt: Give the measured pIC50 of O=C(Nc1ccc(Br)cc1)Nc1nnc(Sc2ncnc3oc(-c4ccccc4)c(-c4ccccc4)c23)s1 .
Completion: 7.26

Prompt: Using the record for Cc1cccc(NC(=O)Nc2nnc(Sc3ncnc4oc(-c5ccccc5)cc34)s2)c1 , report its pIC50.
Completion: 7.92

Prompt: Endpoint output: pIC50 of O=C(Nc1ccc(Cl)c(C(F)(F)F)c1)Nc1nnc(Sc2ncnc3oc(-c4ccccc4)c(-c4ccccc4)c23)s1 . Value?
Completion: 5.90

* * *

# subject.of.test: Receptor-type tyrosine-protein kinase FLT3 (Homo sapiens, UniProt P36888, ITD)
# method.description: biochemical
// map IC50 to label using lowest (below 10 nM), middle (10 nM to below 20 nM), highest (20 nM or more)

                            molecule_smiles  label_value
0  O=C(Nc1cccc(F)c1)Nc1nnc(Sc2ncnc3oc(-c4ccccc4)cc23)s1      highest
1  Cc1ccc(NC(=O)Nc2nnc(Sc3ncnc4oc(-c5ccccc5)c(-c5ccccc5)c34)s2)cc1Cl      highest
2  O=C(Nc1ccc(Cl)c(Cl)c1)Nc1nnc(Sc2ncnc3oc(-c4ccccc4)c(-c4ccccc4)c23)s1      highest
3  O=C(Nc1cccc(Cl)c1)Nc1nnc(Sc2ncnc3oc(-c4ccccc4)c(-c4ccccc4)c23)s1       middle
4  COc1ccc(NC(=O)Nc2nnc(Sc3ncnc4oc(-c5ccccc5)c(-c5ccccc5)c34)s2)cc1       lowest
5  COc1cccc(NC(=O)Nc2nnc(Sc3ncnc4oc(-c5ccccc5)cc34)s2)c1       middle
6  COc1ccc(NC(=O)Nc2nnc(Sc3ncnc4oc(-c5ccccc5)cc34)s2)cc1      highest
7  COc1cccc(NC(=O)Nc2nnc(Sc3ncnc4oc(-c5ccccc5)c(-c5ccccc5)c34)s2)c1       lowest

Prompt: State the class of the compound shown: COc1ccc(NC(=O)Nc2nnc(Sc3ncnc4oc(-c5ccc(OC)cc5)cc34)s2)cc1
Completion: highest

Prompt: Sort into band: O=C(Nc1nnc(Sc2ncnc3oc(-c4ccccc4)c(-c4ccccc4)c23)s1)Nc1ccc(F)cc1F
Completion: lowest

* * *

# subject.of.test: Receptor-type tyrosine-protein kinase FLT3 (Homo sapiens, UniProt P36888, ITD)
# method.description: biochemical
This section presents compounds with their documented log10 of IC50 values.
Please keep in mind that the values are log10 of IC50 expressed in nM.

Answered examples (4):
>>> print(df.to_string())
                            molecule_smiles                           subject_of_test  reading
0  O=C(Nc1ccccc1)Nc1nnc(Sc2ncnc3oc(-c4ccccc4)cc23)s1  Receptor-type tyrosine-protein kinase FLT3 (Homo sapiens, UniProt P36888, ITD)     1.58
1  Cc1cccc(NC(=O)Nc2nnc(Sc3ncnc4oc(-c5ccccc5)c(-c5ccccc5)c34)s2)c1  Receptor-type tyrosine-protein kinase FLT3 (Homo sapiens, UniProt P36888, ITD)     1.00
2  COc1ccc(-c2cc3c(Sc4nnc(NC(=O)Nc5ccccc5)s4)ncnc3o2)cc1  Receptor-type tyrosine-protein kinase FLT3 (Homo sapiens, UniProt P36888, ITD)     1.20
3  O=C(Nc1nnc(Sc2ncnc3oc(-c4ccccc4)c(-c4ccccc4)c23)s1)Nc1ccccc1Br  Receptor-type tyrosine-protein kinase FLT3 (Homo sapiens, UniProt P36888, ITD)     0.60

Prompt: Receptor-type tyrosine-protein kinase FLT3 (Homo sapiens, UniProt P36888, ITD) / log10 of IC50 / O=C(Nc1ccc(Cl)c(Cl)c1)Nc1nnc(Sc2ncnc3oc(-c4ccccc4)cc23)s1 : value?
Completion: 0.60

Prompt: Please provide the recorded log10 of IC50 for O=C(Nc1ccc(Cl)cc1)Nc1nnc(Sc2ncnc3oc(-c4ccccc4)c(-c4ccccc4)c23)s1 , tested on Receptor-type tyrosine-protein kinase FLT3 (Homo sapiens, UniProt P36888, ITD).
Completion: 1.20
